# system tested: CeTb, colchicine site (Gallus gallus)
# method summary: Single-point MDL competitive binding inhibition screen, erythrocyte tubulin
# Parameters: species or system chicken (Gallus gallus)
List of CeTb % (inhibition of MDL binding) values.
State the answer as a number, implicitly in %.

>>> measurement("COc1ccc(S(=O)(=O)Nc2cccnc2Nc2ccc(O)cc2)cc1")
12
>>> measurement("COc1ccc(/C=C\\c2cc(OC)c(OC)c(OC)c2)cc1O [Combretastatin A4, cis-Combretastatin A4]")
64
>>> measurement("COC(=O)Nc1nc2ccc(C(=O)c3cccs3)cc2[nH]1")
96

Read the next record carefully.
Log: CeTb, colchicine site (Gallus gallus), compound `COc1cc([C@@H]2c3[nH]c4ccccc4c3C[C@H]3COC(=O)N32)cc(OC)c1O` , CeTb % (inhibition of MDL binding) = 4

====

# system tested: BTb, colchicine site (Bos taurus, UniProt Q6B856)
# Construct: from tissue; host or cells: mammalian brain: either rat brain (purified in house) or bovine brain (bought from Cytoskeleton #HTS02-A or Sigma-Aldrich #T4925)
# method summary: Single-point MDL competitive binding inhibition screen, brain tubulin
# Set-up: species or system bovine or rat
# settings: 50 µM drug, 1 µM tubulin, 5 µM MDL, single point; read-out: BTb % (inhibition of MDL binding)
readout name: inhibition at 50 µM (%)
State the answer as a number, implicitly in %.

Some solved cases for reference:
>>> measurement("COc1ccc(/C=C\\c2cc(OC)c3c(c2)OCO3)cc1O")
91
>>> measurement("O=C1NC(=O)[C@@H](c2cn3c4c(cccc24)CCC3)[C@@H]1c1c[nH]c2ccccc12 [Tivantinib]")
48
>>> measurement("CCC[C@H](Nc1nc(-c2ccc(NC(=O)NCC)c(OC)c2)ncc1C)c1cccnc1")
80

Record COc1cc2c(c(OC)c1OC)-c1ccc(O)c(=O)cc1C(N)CC2 (stereo not drawn) . Reported inhibition at 50 µM: 22

====

List of Brain tubulin (BTb) % inhibition at 60 min values.
# system tested: Brain tubulin (BTb) (Bos taurus, UniProt Q6B856)
# Construct: from tissue; host or cells: mammalian brain: either rat brain (purified in house) or bovine brain (bought from Cytoskeleton #HTS02-A or Sigma-Aldrich #T4925)
# method summary: Inhibition of taxol-induced tubulin polymerization (absorbance at 350 nm), brain tubulin
# Format: biochemical, bovine or rat
# settings: tubulin 2 µM, taxol 2 µM, drugs 20 µM; polymerization with taxol alone = 100%
State the answer as a number, implicitly in %.

Some solved cases for reference:
>>> measurement("COC(=O)Nc1nc2ccc(C(=O)c3ccccc3)cc2[nH]1")
92
>>> measurement("COc1ccc(OC)c(C(=O)/C(C)=C/c2ccc(N(C)C)cc2)c1")
64
>>> measurement("COC(=O)Nc1nc2ccc(C(=O)c3cccs3)cc2[nH]1")
55

Read the next record carefully.
Record `COc1cc([C@@H]2c3cc4c(cc3[C@H](O)[C@H]3COC(=O)[C@H]23)OCO4)cc(OC)c1OC` . Reported Brain tubulin (BTb) % inhibition at 60 min: 90

====

# system tested: CeTb, colchicine site (Gallus gallus, UniProt P09207)
# method summary: Single-point MDL competitive binding inhibition screen, erythrocyte tubulin
# Set-up: species or system chicken (Gallus gallus)
readout name: Kd (µM)
State the answer as a number, implicitly in µM.

>>> measurement("CCC[C@H](Nc1nc(-c2ccc(NC(=O)NCC)c(OC)c2)ncc1C)c1cccnc1")
268

Read the next record carefully.
Log: CeTb, colchicine site (Gallus gallus, UniProt P09207), compound COc1c2c(cc3c1-c1ccc(OC)c(=O)cc1C(NC(C)=O)CC3)OCO2 (centres unmarked) , Kd = 30
